Target: human renin (Homo sapiens, UniProt P00797)
Sequence (P00797 67-406): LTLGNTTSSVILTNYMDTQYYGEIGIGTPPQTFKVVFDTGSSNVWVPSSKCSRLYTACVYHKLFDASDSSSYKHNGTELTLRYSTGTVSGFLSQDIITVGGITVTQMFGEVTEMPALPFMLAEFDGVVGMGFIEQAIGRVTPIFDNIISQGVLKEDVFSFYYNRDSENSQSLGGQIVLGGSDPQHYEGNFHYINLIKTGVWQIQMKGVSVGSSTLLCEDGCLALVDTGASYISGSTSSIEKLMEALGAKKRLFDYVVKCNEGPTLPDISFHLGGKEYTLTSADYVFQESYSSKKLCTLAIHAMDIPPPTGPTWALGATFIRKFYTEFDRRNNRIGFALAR
Experiment: In vitro test with pure human renin (angiotensin I production via RIA)
Settings: human tetradecapeptide renin substrate (hTD), pH 7.4, three hours at 37° C.
Where a name gives a salt, the structure may show the parent alone.
MEASURE: IC50 (nM)

Use the examples below as a reference point.
COCCOC[C@@H](O)CO[C@@H]1CNC[C@H](OCc2cc(OC)c3ccccc3c2)[C@H]1c1ccc(OCCCOCc2ccccc2OC)cc1 ... 0.03
COc1cc(CO[C@H]2CNC[C@@H](OC[C@H](O)CO)[C@@H]2c2ccc(OCCCOc3ccccc3[N+](=O)[O-])cc2)cc2ccccc12 ... 0.08
COc1ccccc1COCCCOc1ccc([C@H]2[C@H](Cn3ccnc3)CNC[C@@H]2OCc2cc(OC)c3ccccc3c2)cc1 [E, dihydrochloride] ... 0.07

I = COc1ccccc1COCCCOc1ccc([C@H]2[C@H](CO)CNC[C@@H]2OCc2cc(OC)c3ccccc3c2)cc1
II = COC[C@@H](O)CO[C@@H]1CNC[C@H](OCc2cc(OC)c3ccccc3c2)[C@H]1c1ccc(OCCCOCc2ccccc2OC)cc1
Consider I and II . Which of these has its IC50 at a higher number? Use the label to indicate which entry you chose.
II
